Reference source for all entries: paper PMC8533642

List of mMC3R percent maximal stimulatory response (compared to NDP-MSH) values.
measurement_target: mMC3R (Mus musculus)
Sequence (P33033 whole entry): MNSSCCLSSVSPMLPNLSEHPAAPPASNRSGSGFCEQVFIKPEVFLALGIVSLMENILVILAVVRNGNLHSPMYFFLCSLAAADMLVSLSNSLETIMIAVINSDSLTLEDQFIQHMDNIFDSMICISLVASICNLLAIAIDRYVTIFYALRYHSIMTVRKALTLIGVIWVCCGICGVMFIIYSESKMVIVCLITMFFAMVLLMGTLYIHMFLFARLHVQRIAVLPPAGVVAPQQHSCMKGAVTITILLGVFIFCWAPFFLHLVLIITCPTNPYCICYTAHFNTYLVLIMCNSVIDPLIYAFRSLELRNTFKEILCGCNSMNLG
protocol_summary: AlphaScreen cAMP agonist assay, HEK293 cells stably expressing mMC3R
Assay type: cell-based
study_conditions: at 100 μM
Square brackets hold non-standard residues; d marks the D form. Peptide text beside a SMILES is read from it. dPhe(4-I) = N[C@H](Cc1ccc(I)cc1)C(=O)O; d2Nal = N[C@H](Cc1ccc2ccccc2c1)C(=O)O
Please give a number only; it is taken to be in % @100μM.

// below: answered molecules
Record CC(=O)N[C@H](Cc1ccc2ccccc2c1)C(=O)N[C@H](Cc1ccc2ccccc2c1)C(=O)N[C@@H](Cc1c[nH]c2ccccc12)C(=O)N[C@@H](CCCNC(=N)N)C(N)=O [Peptide 6, Ac-DNal(2’)-DNal(2’)-Trp-Arg-NH2] (Ac-[d2Nal][d2Nal]WR-NH2) , field mMC3R percent maximal stimulatory response (compared to NDP-MSH): 35

Record CC(=O)N[C@H](Cc1ccc(I)cc1)C(=O)N[C@@H](CCCNC(=N)N)C(=O)N[C@H](Cc1ccc(I)cc1)C(=O)N[C@H](Cc1ccc2ccccc2c1)C(N)=O [Peptide 44, Ac-DPhe(pI)-Arg-DPhe(pI)-DNal(2’)-NH2] (Ac-[dPhe(4-I)]R[dPhe(4-I)][d2Nal]-NH2) , field mMC3R percent maximal stimulatory response (compared to NDP-MSH): 40

Record CC(=O)N[C@H](Cc1ccc2ccccc2c1)C(=O)N[C@@H](CCCNC(=N)N)C(=O)N[C@@H](Cc1c[nH]c2ccccc12)C(=O)N[C@H](Cc1ccc2ccccc2c1)C(N)=O [Peptide 17, Ac-DNal(2’)-Arg-Trp-DNal(2’)-NH2] (Ac-[d2Nal]RW[d2Nal]-NH2) , field mMC3R percent maximal stimulatory response (compared to NDP-MSH): 40

Record CC(=O)N[C@H](Cc1ccc(I)cc1)C(=O)N[C@@H](CCCNC(=N)N)C(=O)N[C@@H](Cc1c[nH]c2ccccc12)C(=O)N[C@H](Cc1ccc2ccccc2c1)C(N)=O [Peptide 41, Ac-DPhe(pI)-Arg-Trp-DNal(2’)-NH2] (Ac-[dPhe(4-I)]RW[d2Nal]-NH2) , field mMC3R percent maximal stimulatory response (compared to NDP-MSH): 25

Record CC(=O)N[C@H](Cc1ccc2ccccc2c1)C(=O)N[C@@H](CCCNC(=N)N)C(=O)N[C@H](Cc1ccc2ccccc2c1)C(=O)N[C@H](Cc1ccc2ccccc2c1)C(N)=O [Peptide 14, Ac-DNal(2’)-Arg-DNal(2’)-DNal(2’)-NH2] (Ac-[d2Nal]R[d2Nal][d2Nal]-NH2) , field mMC3R percent maximal stimulatory response (compared to NDP-MSH): 50

Next up:
Record CC(=O)N[C@H](Cc1ccc(I)cc1)C(=O)N[C@@H](CCCNC(=N)N)C(=O)N[C@H](Cc1ccc2ccccc2c1)C(=O)N[C@H](Cc1ccc2ccccc2c1)C(N)=O [Peptide 38, Ac-DPhe(pI)-Arg-DNal(2’)-DNal(2’)-NH2] (Ac-[dPhe(4-I)]R[d2Nal][d2Nal]-NH2) , field mMC3R percent maximal stimulatory response (compared to NDP-MSH): 45
